The reported numbers originate from patent US20250002574A1.

Target: T1, IL-11 (UniProt P20809 22-199, limits assumed)
T1 construct: also called IL-11 protein; IL-11 antigen
T1 sequence (looked up): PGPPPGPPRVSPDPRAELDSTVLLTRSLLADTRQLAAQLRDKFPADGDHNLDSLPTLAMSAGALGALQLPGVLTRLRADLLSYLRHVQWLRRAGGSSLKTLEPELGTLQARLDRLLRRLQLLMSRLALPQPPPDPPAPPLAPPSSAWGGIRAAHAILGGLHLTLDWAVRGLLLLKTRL
Assay: ELISA on IL-11, monoclonal hybridoma antibody
Quick reference: OD450 of the listed items.
Number in OD450, nothing else.

Here are 2 binders together with their reported answers.
# binder, units.symbol, OD450
measured = [
    ("3-2B5-3D2 (antibody, human IgG1, kappa, V domains shown) VH: QVQLKQSGPGLVLPSQSLSITCTVSGFSLTSYGVHWFRQSPGTGLEWLGVIWSGGITDYNATFIPRLSISKDNSKSQVFFKMNSLQADDTAIYYCARNFDGYYYSIDYWGQGTSVTVSS VL: DIQMTQTTSSLSASLGDRVTISCRASQDISNSLNWYQQKPDGTVKLLIYYTSRLHSGVPSRFTGSGSGTDYSLTISNLEQEDIATYFCQQGNTLPLTFGAGTKLELKR", "OD450", 1.61),
    ("3-6A4 (hybridoma) (antibody, human IgG1, kappa, V domains shown, only the variable parts apply for certain) VH: QIQLVQSGPELKKPGETVKISCKASGYTFTTNGINWVKQAAGKGLKWMGWINTNTGEPTNAEELKGRFAFSLETSASTAYLQINNLKNEDAAIYFCAREGAFGLDYWGQGTSVTVSS VL: SIVMTQSPKFLLVSAGDRVIITCKASQSVSNDVVWYQQKPGQSPKLLIYYGSHRNTGVPTRFTGSGYGTDFTFTISTVQAEDLAVYFCQQDFFSPWTFGGGTKLEIKR", "OD450", 1.58),
]

Given the entry 3-15D5-3A6 (antibody, human IgG1, kappa, V domains shown) VH: QVTLKESGPGILQPSQTLSLTCSFSGFSLSSSGMSVGWIRQPSGKGLEWLAHIWWSDDKSYNPALKSRLTISKDTSNNQVFLKIASVVTADTATYYCAREGSLGYGLDYWGQGTTLTVSS VL: DVLMTQTPLSLPVSLGDQASISCRSSQSIVHTDGNTYLEWYLQKPGQSPKLLIYKVSNRFSGVPDRFSGSGSGTDFTLKISRVEAEDLGVYYCFQGSHVPWTFGGGTKLEIKR , report its measured OD450. 1.69

And the next one, 3-5B2-2G4 (antibody, human IgG1, kappa, V domains shown) VH: QIQLVQSGPELKKPGETVKISCKASGYTFTNYGMNWVKQAPGKGLKWMGWINTNTGEPTYAEEIKGRFAFSLETSASTAYLQINNLKNEDTATYFCSREGIYGMDSWGQGTSVTVSS VL: SIVMTQTPKFLLVSAGDRVTITCKASQSVSNDVVWYRQKPGQSPKLLIYYASNRYIGVPDRFTGSGYGTDFTFTISTVQAEDLAVYFCQQDYYSPWTFGGGTKLEIKR ? 1.65

And the next one, 3-7C9-1A6 (antibody, human IgG1, kappa, V domains shown) VH: QVQLKQSGPGLVQPSQSLSITCTVSGFSLTNYGVHWVRQSPGKGLEWLGAIWRGGSTDYNAAFMSRLSITKDNSKSQVFFKMNSLQPDDTAIYYCAKNLYGPAAMDYWGQGTSVTVSS VL: DIQMNQSPSSLSASLGDTITITCHANQNIYVWLSWYQQKPGNIPKLLIYEASNLHTGVPSRFSGSGSGTGFTLTISSLQPEDIATYYCQQGQSYPYTFGGGTKLEIKR ? 1.6

And the next one, 3-15D5-6A1 (antibody, human IgG1, kappa, V domains shown) VH: EVKLLESGGGLVQPGGSLKLSCAASGFDFRRYWMSWVRQAPGKGLEWIGQINPDSSMINYTPSLKDKFIISRDNAKNTLYLQMSEVRSEDTALYYCATYGHHATDSWGQGTSVTVSS VL: DIVLTQSPASLAVSLGQRATISCRASESVDSYGNSFMHWYQQKPGQPPKLLIYRASNLESGIPARFSGSGSRTDFTLTINPVEADDVATYYCQQSNEDPFTFGSGTKLEIKR ? 1.51

And the next one, 5-20E11-1A2 (antibody, V domains shown) VH: QVQLQQPGAELVRPGTSVKMSCKASGYTFTSYWMHWVKQRPGQGLEWIGDIYPGSDSTNYHEKFKSKATLTVDTSSSTAYMQLSSLTSEDSAVYYCALDSSGYGFAYWGQGTLVTVSA VL: NIVMTQTPKFLLVSAGDRVTITRKASQSVSNDVVWYQQKPGQSPKLLMYYASYRYTGVPDRFTGSGYGTDFTFTISNVQAEDLAVYFCQQDYSSPFTFGSGTKLEIK ? 1.63
